Molecular target: F protein of human metapneumovirus strain JPS05-21 (type B2), on infectious virus (human metapneumovirus, strain JPS05-21 …)
Assay: cell-based or functional assay
Reported IC50, neutralizing activity (hMPV infection of LLC-MK2 cells; GraphPad Prism 6) values follow for various binders
Give the number; ng/mL is assumed, so skip it.

Answered cases to consult:
[[record]]
binder = "EV046136 (antibody, human IgG1, kappa, V domains shown) VH: QVQLVQSGAEMKKPGASVKVSCKASGYTFTDYFIHWVRQAPGQGLEWMGWVNPNSGATNYAQKFQGRVTMTGDTSLSAAYVDLSRLSSDDSAVYYCARDRGLGISSTRNDAFDIWGQGTTVTVSS VL: DIQLTQSPSSLSASVGDRVTITCQPSQGIRNFLNWYQQKPGKAPNLLIYDASNLETGVASRFSGSGSGTHFTLTISSLQPEDIATYFCQQYHSLPLTFGGGTKVEIKR"
test_value = 537

[[record]]
binder = "EV046116 (antibody, human IgG1, kappa, V domains shown) VH: QVQLQESGPGLVKPSETLSLTCTVSGGSISRDYWSFIRQPAGKGLEWIGRIYHNGDTNYNPSLKSRVTMSQDTSKNQFFLRLRHVTAADTAVYYCAREGSAGTFGQADWGQGTLVIVYS VL: EIVMTQSPATLSVSPGERATLSCRASQSISNNLAWYQQKPGQAPRLLIYGASTRATGIPARFSGGGSGTEFTLTISSLQSEDFAVYYCQQYENWLLYTFGQGTKLEIKR"
test_value = 279

[[record]]
binder = "EV046143 (antibody, human IgG1, kappa, V domains shown) VH: QVQLVQSGAEVQKPGSSVKVSCKTSGDTFNNYALSWVRQAPGQGPEWMGRIIPLVEMANYAQKFQGRVTITADKSTTTIYMELSSLRSEDTAMYYCARDGYQGGFPYFFDSWGQGTLVTVSS VL: EVVLTQSPGTLSLSPGERATLSCRASQSVSNYLAWYQQKPGQAPRLLISAASSRATGIPDRFGGSGSGADFTLTISRLEPEDFAVYYCQQYGFSPGTFGQGTKVEIRR"
test_value = 272

[[record]]
binder = "EV046135 (antibody, human IgG1, lambda, V domains shown) VH: QEQLVESGGDLVKPGGSLRITCAASGFTLSGYALVWVRQAPGRGLEWIADITASSTYINYAASVKGRFTISRDNAQSSLFLQMSSLRADDTGVYFCARLPHLPGFFDLWGRGTLVSVSS VL: QSVLTQPPSVSGAPGQRVTISCTGNSSNIGAGYDVNWYQHLPGTAPKLLISVNTNRPSGVPDRFSGSMSGTSASLAITGLQAEDEADYYCQSYDRRLSGYVFGTGTKVTVLG"
test_value = 213


Next item in the queue.
Supply IC50, neutralizing activity (hMPV infection of LLC-MK2 cells; GraphPad Prism 6) value. Item: EV046130 (antibody, human IgG1, lambda, V domains shown) VH: QVQLVESGGGVAQPGRSLRLSCAASGFTLSNYGMHWVRQAPGKGLEWVAVIWYDGRNKYYADSVKGRFTISRDDFKNTLDLQMNSLRAEDTAVYYCARDQHAGITMIEDWGQGTLVTVSS VL: QSALTQPPSASGSPGQSVTISCTGTSSDVGYFKYVSWYQQHPGKAPKLLIYEVSKRPSGVPDRFSGSRSGNTASLTVSGLQADDEADYYCGSYAGNNNIIFGGGTKLTVLG
105
